assay: basal 3T3-L1 adipocyte mitochondrial potential changes, profiling panel, cell-based, JC-1 fluorescence, 3T3-L1 adipocytes, 24 h, 100 nL compound (AID 1168); conditions: JC-1 mitochondrial fluorescence, higher = more signal, called active from +8 up or from −8 down; further: test concentration not given here
Calls of active or inactive are those of the source.
Answer each item with its documented z-score.

List the reported z-score of each compound below.
1. CO[C@H]1O[C@H](CO)[C@@H](OC(=O)Nc2ccc(Oc3ccccc3)cc2)[C@H](OC(=O)Nc2ccccc2-c2ccccc2)[C@H]1OC(=O)Nc1ccccc1-c1ccccc1
2. COCCOC(=O)N1C(=O)[C@@]2(c3cc(C#CCCO)ccc31)[C@H](c1ccc(OCCO)cc1)N1[C@H](c3ccccc3)[C@H](c3ccccc3)OC(=O)[C@H]1[C@@H]2C(=O)NC[C@H](O)c1ccccc1
3. N#Cc1ccc(NN2C(C(O)CCc3ccccc3)C=CC3C(=O)N(c4ccccc4)C(=O)C32)cc1 (stereo unspecified)
4. COC(=O)c1c(CC[C@@H](CO)NC(=O)N[C@H](Cn2cc(-c3cncn3C)nn2)C(C)C)oc(C(C)=O)c1C(=O)OC
5. O=C1OCC=C[C@H]2OC34C=CCN(Cc5ccccc5)C(=O)[C@H]3N(CCCCCO)C(=O)[C@@H]4[C@@H]12 (stereo partly specified)

# output
1.64 (inactive)
0.357 (inactive)
-0.0951 (inactive)
1.43 (inactive)
1.45 (inactive)

List the reported z-score of each compound below.
1. C=C(CCCC)/C(=C/C[C@H](OC(=O)c1ccncc1)c1cccc(OCCO)c1)c1cc(C(=O)OC)ccc1OC
2. C=CC[C@@]12N=C(c3ccc(OCCCO)cc3)O[C@@H]1c1ccccc1CN(Cc1ccccc1)C2=O
3. C=C(CCCC)C(=O)CC[C@@H](OC(C)=O)c1ccccc1OCCO
4. COC(=O)[C@@]1(Cc2ccccc2)[C@H]2c3cc(C(=O)N4CCCC4)n(CCN4CNCC4=O)c3C[C@H]2CN1C(=O)c1ccccc1
5. N#Cc1ccc(NN2C(C(O)c3ccc(I)cc3)C=CC3C(=O)N(c4ccccc4)C(=O)C32)cc1 (stereo unspecified)

# output
-0.174 (inactive)
-0.218 (inactive)
1.08 (inactive)
0.251 (inactive)
0.641 (inactive)

List the reported z-score of each compound below.
1. CO[C@H]1COC(=O)CC=C[C@H](C)[C@@H](OC)COC(=O)CC=C[C@@H]1C
2. COc1cccc([C@H]2N[C@H](C(=O)O)CC[C@@H]2C)c1
3. COC(=O)C[C@H]1O[C@]2(C(=O)N(Cc3ccccc3)c3ccc(I)cc32)[C@@H](C)[C@@H]1[Si](C)(C)c1ccc(OC)cc1
4. O=C(N1CCCCC1)[C@@]1(CCS(=O)(=O)c2ccccc2)N=C(c2ccc(OCCCO)cc2)O[C@H]1c1ccccc1

# output
1: 0.425 (inactive); 2: 0.75 (inactive); 3: -1.07 (inactive); 4: -0.751 (inactive)

List the reported z-score of each compound below.
1. C=C(C)[C@@H]1CC=C(C(O)C2C=CC3C(=O)NC(=O)C3N2Nc2ccccn2)CC1 (stereo partly specified)
2. C[C@H]1COC(=O)[C@H](Cc2ccccc2)NC(=O)[C@@H](C)COC(=O)[C@H](Cc2ccccc2)NC1=O

# output
0.344 (inactive)
0.382 (inactive)
